Molecular target: T1, human VEGFA165 (human, UniProt P15692-4 27-191)
T1 construct: Bought protein from two suppliers, treated as one molecule; the supplier is named under assay; also called antigen VEGFA
T1 sequence (P15692 other isoform, or with tags, fused parts or gaps limits assumed): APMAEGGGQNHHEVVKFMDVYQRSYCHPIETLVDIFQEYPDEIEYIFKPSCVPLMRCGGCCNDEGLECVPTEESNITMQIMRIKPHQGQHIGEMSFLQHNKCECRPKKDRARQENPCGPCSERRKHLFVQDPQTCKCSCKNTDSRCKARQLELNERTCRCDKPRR
Experiment: SPR Biacore 8K, VEGFA165 on CM5, nanobody analyte, 1:1 fit
Property Name: kon (M⁻¹ s⁻¹)
I only need the number, in M⁻¹ s⁻¹, no unit after it.

*Q* What value of measured kon is listed for V29 (VHH, Monovalent nanobody; tag not described here) VHH: QLQLVESGGGSVQPGGSLRLSCEVSGRTFSSYTMGWFRQAPGKEREFVVAISKGGYKYDSVSLEARFTISKDNTKNTVYLQMNSLKPEDTAVYYCAGTRAYGSSRLRLANTYEYWGQGTQVTVSS ?
*A* 236000

# credit: patent US20260234232A1
